test system: SEM cells; assay: cell viability relative to DMSO control; higher = less cytotoxic; conditions: HPLM + 10% dialyzed FBS; 48 h; 0.00234 µM
METRIC_NAME: cell viability (%)
Write the value in % as a bare number.

Prompt: Check the records and state cell viability for `CCn1c(-c2nonc2N)nc2c(C#CC(C)(C)O)ncc(OC[C@H]3CCCNC3)c21`
Completion: 83.1

Prompt: Given `CCOC(=O)N1c2ccc(C(F)(F)F)cc2[C@@H](N(Cc2cc(C(F)(F)F)cc(C(F)(F)F)c2)C(=O)OC)C[C@H]1CC` , respond with its cell viability.
Completion: 111

Prompt: # return recorded cell viability for input `COc1ccc(C(=O)c2c(C)n(CCN3CCOCC3)c3ccccc23)cc1`
Completion: 93.6

Prompt: Identify measured cell viability corresponding to O=C(CS(=O)Cc1ccco1)NC/C=C\COc1cc(CN2CCCCC2)ccn1 (stereo not drawn)
Completion: 86.2

Prompt: Specify measured cell viability for `CC(C)=CCC/C(C)=C/CC/C(C)=C/CC/C(C)=C/CC/C(C)=C/CC/C(C)=C/CC/C(C)=C/CC/C(C)=C/CC/C(C)=C/CO` .
Completion: 109

Prompt: Query cell viability for `N#Cc1ccc(Oc2ccc3c(c2)COB3O)cc1`
Completion: 122

Prompt: Tell us which cell viability value is on record for `Cc1ccc([N+](=O)[O-])cc1[S+](=O)([O-])N(C)/N=C/c1cnc2ccc(Br)cn12`
Completion: 118

Prompt: Return reported cell viability. Input molecule: CC\12CCC(=O)\C=C1CCC3C2CCC4(C)C3CCC4(O)C#C (stereo not drawn)
Completion: 104

Prompt: Name the recorded cell viability of the item `O=C1\C=C/C=C2/[C@H]3CNC[C@H](C3)CN12` in your answer.
Completion: 95.2

Prompt: Answer with the recorded cell viability for the molecule listed here: `C[C@@H]1C/C=C/C=C/C=C/C=C/[C@@H](O[C@@H]2O[C@H](C)[C@@H](O)[C@H](N)[C@@H]2O)C[C@@H]2O[C@](O)(C[C@@H](O)C[C@@H]3O[C@H]3/C=C/C(=O)O1)C[C@H](O)[C@H]2C(=O)O`
Completion: 120

Prompt: Indicate the recorded cell viability value for this molecule: `NC(=O)Nc1sc(-c2ccc(F)cc2)cc1C(N)=O`
Completion: 113

Prompt: Read off the recorded cell viability for `CC(C)(F)C[C@H](N[C@@H](c1ccc(-c2ccc([S+](C)(=O)[O-])cc2)cc1)C(F)(F)F)C(=O)NC1(C#N)CC1`
Completion: 93.8

Prompt: Report measured cell viability; entry is `O=C/1NC(=O)C(=C1C2=CN=C3C=CC=C[N]23)/C4=C[N]5CCN(CC6=C5C4=CC=C6)C(=O)N7CCOCC7`
Completion: 104

====

test system: NOMO1; assay: AUC of viability dose-response curve (% viability x log10 dose units); higher = less sensitive; conditions: HPLM + 10% dialyzed FBS; 48 h
METRIC_NAME: AUC of viability dose-response curve
Output: the number by itself.

Prompt: State its AUC of viability dose-response curve for this molecule: `CC(C)(O)CCc1ccc(OCc2cc(-c3cccc(OC(F)F)c3)c3ncccc3c2)cc1`
Completion: 468

Prompt: Return the recorded AUC of viability dose-response curve value; entry: `CCN1\C=C(\C(O)=O)C(=O)C2=C1N=C(N3CCNCC3)C(=C2)F`
Completion: 343

Prompt: Could you please provide reported AUC of viability dose-response curve for `Cc1nc(NC(=O)N2CCC[C@H]2C(N)=O)sc1-c1csc(C(C)(C)C)n1` ? Thanks!
Completion: 323

Prompt: Output measured AUC of viability dose-response curve for this item: `CN1CCN(c2c(F)cc3c(=O)c(C(=O)O)cn(CCF)c3c2F)CC1`
Completion: 466

Prompt: Provide measured AUC of viability dose-response curve value, entry: `CO[C@@]12[C@H](COC(N)=O)C/3=C(N1C[C@@H]4N[C@H]24)/C(=O)/C(=C(N)\C3=O)C`
Completion: 449

Prompt: Supply recorded AUC of viability dose-response curve for Cc1ccccc1C(OCCN(C)C)c1ccccc1 (configuration not stated) here.
Completion: 462

Prompt: # return recorded AUC of viability dose-response curve for entry `O=C(Nc1nnc(-c2ccco2)o1)c1cc(-c2ccccc2)nc2ccccc12`
Completion: 393

The reported numbers originate from the supplement of paper PMC11451515.
